# Tested on: Proteus vulgaris
# experimental details: Antimicrobial activity against Proteus vulgaris MTCC 1771 assessed as growth inhibition after 24 hr by agar streak dilution method
# Format: functional
# test settings: MTCC 1771, 24 h
# MIC listing for each entry below

- molecule: "N#Cc1c(-c2ccccc2O)cc(-c2ccc(Nc3cc(=O)oc4ccccc34)cc2)nc1N"
  MIC / µg/mL: 12.5
- molecule: "N#Cc1c(-c2ccc(Cl)cc2Cl)cc(-c2ccc(Nc3cc(=O)oc4ccccc34)cc2)nc1N"
  MIC / µg/mL: 3.12
- molecule: "O=C(O)c1cn(C2CC2)c2cc(N3CCNCC3)c(F)cc2c1=O [CIPROFLOXACIN]"
  MIC / µg/mL: 1
- molecule: "Cc1ccc(-c2cc(-c3ccc(Nc4cc(=O)oc5ccccc45)cc3)nc(N)c2C#N)cc1"
  MIC / µg/mL: 12.5
- molecule: "Cc1ccc(-c2cc(-c3ccc(Nc4cc(=O)oc5ccccc45)cc3)nc(N)n2)cc1"
  MIC / µg/mL: 25
- molecule: "CC(=O)N1N=C(c2ccc(Nc3cc(=O)oc4ccccc34)cc2)CC1c1ccc(Cl)cc1Cl (centres undefined)"
  MIC / µg/mL: 12.5
- molecule: "N#Cc1c(-c2ccc([N+](=O)[O-])cc2)cc(-c2ccc(Nc3cc(=O)oc4ccccc34)cc2)nc1N"
  MIC / µg/mL: 50
- molecule: "CC(=O)N1N=C(c2ccc(Nc3cc(=O)oc4ccccc34)cc2)CC1c1ccccc1O (centres undefined)"
  MIC / µg/mL: 100
- molecule: "CC(=O)N1N=C(c2ccc(Nc3cc(=O)oc4ccccc34)cc2)CC1c1ccc(C)cc1 (centres undefined)"
  MIC / µg/mL: 50
- molecule: "Nc1nc(-c2ccccc2)cc(-c2ccc(Nc3cc(=O)oc4ccccc34)cc2)n1"
  MIC / µg/mL: 100
- molecule: "N#Cc1c(-c2ccc(F)cc2)cc(-c2ccc(Nc3cc(=O)oc4ccccc34)cc2)nc1N"
  MIC / µg/mL: 3.12
- molecule: "CC(=O)N1N=C(c2ccc(Nc3cc(=O)oc4ccccc34)cc2)CC1c1ccc(Cl)cc1 (centres undefined)"
  MIC / µg/mL: 50
- molecule: "O=C(/C=C/c1ccc(Cl)cc1Cl)c1ccc(Nc2cc(=O)oc3ccccc23)cc1"
  MIC / µg/mL: 50
- molecule: "COc1ccc(/C=C/C(=O)c2ccc(Nc3cc(=O)oc4ccccc34)cc2)cc1OC"
  MIC / µg/mL: 50
- molecule: "Nc1nc(-c2ccc(F)cc2)cc(-c2ccc(Nc3cc(=O)oc4ccccc34)cc2)n1"
  MIC / µg/mL: 6.25
- molecule: "CC(=O)N1N=C(c2ccc(Nc3cc(=O)oc4ccccc34)cc2)CC1c1ccc(F)cc1 (centres undefined)"
  MIC / µg/mL: 25
- molecule: "Nc1nc(-c2ccc(Nc3cc(=O)oc4ccccc34)cc2)cc(-c2ccc(Cl)cc2Cl)n1"
  MIC / µg/mL: 6.25
- molecule: "COc1ccc(-c2cc(-c3ccc(Nc4cc(=O)oc5ccccc45)cc3)nc(N)n2)cc1OC"
  MIC / µg/mL: 25
- molecule: "CC(=O)N1N=C(c2ccc(Nc3cc(=O)oc4ccccc34)cc2)CC1c1ccc([N+](=O)[O-])cc1 (centres undefined)"
  MIC / µg/mL: 100

====

# Test system: Escherichia coli
# experimental details: Antimicrobial activity against Escherichia coli MTCC 739 assessed as diameter of growth inhibition zone after 24 hr; further: test concentration or dose not given here
# Assay type: functional
Collected diameter of the inhibition zone (DIZ) values appear next to each entry.
value type: diameter of the inhibition zone (DIZ) (mm)

- compound: "COc1ccc(C2CC(c3ccc(Nc4cc(=O)oc5ccccc45)cc3)=NN2C(C)=O)cc1 (configuration not stated)"
  tgt: "Escherichia coli"
  value type: "diameter of the inhibition zone (DIZ)"
  limit operator: "="
  numeric readout: 19
- compound: "Cc1ccc(-c2cc(-c3ccc(Nc4cc(=O)oc5ccccc45)cc3)nc(N)c2C#N)cc1"
  tgt: "Escherichia coli"
  value type: "diameter of the inhibition zone (DIZ)"
  limit operator: "="
  numeric readout: 20
- compound: "Nc1nc(-c2ccc(Nc3cc(=O)oc4ccccc34)cc2)cc(-c2ccccc2Br)n1"
  tgt: "Escherichia coli"
  value type: "diameter of the inhibition zone (DIZ)"
  limit operator: "="
  numeric readout: 16
- compound: "Nc1nc(-c2ccc(Nc3cc(=O)oc4ccccc34)cc2)cc(-c2ccc([N+](=O)[O-])cc2)n1"
  tgt: "Escherichia coli"
  value type: "diameter of the inhibition zone (DIZ)"
  limit operator: "="
  numeric readout: 17
- compound: "O=C(/C=C/c1ccccc1O)c1ccc(Nc2cc(=O)oc3ccccc23)cc1"
  tgt: "Escherichia coli"
  value type: "diameter of the inhibition zone (DIZ)"
  limit operator: "="
  numeric readout: 14
- compound: "Nc1nc(-c2ccccc2)cc(-c2ccc(Nc3cc(=O)oc4ccccc34)cc2)n1"
  tgt: "Escherichia coli"
  value type: "diameter of the inhibition zone (DIZ)"
  limit operator: "="
  numeric readout: 14
- compound: "N#Cc1c(-c2ccc(O)cc2O)cc(-c2ccc(Nc3cc(=O)oc4ccccc34)cc2)nc1N"
  tgt: "Escherichia coli"
  value type: "diameter of the inhibition zone (DIZ)"
  limit operator: "="
  numeric readout: 24
- compound: "N#Cc1c(-c2ccc(Cl)cc2)cc(-c2ccc(Nc3cc(=O)oc4ccccc34)cc2)nc1N"
  tgt: "Escherichia coli"
  value type: "diameter of the inhibition zone (DIZ)"
  limit operator: "="
  numeric readout: 21
- compound: "CC(=O)N1N=C(c2ccc(Nc3cc(=O)oc4ccccc34)cc2)CC1c1ccc(Cl)cc1Cl (configuration not stated)"
  tgt: "Escherichia coli"
  value type: "diameter of the inhibition zone (DIZ)"
  limit operator: "="
  numeric readout: 18
- compound: "N#Cc1c(-c2ccccc2O)cc(-c2ccc(Nc3cc(=O)oc4ccccc34)cc2)nc1N"
  tgt: "Escherichia coli"
  value type: "diameter of the inhibition zone (DIZ)"
  limit operator: "="
  numeric readout: 24
- compound: "CC(=O)N1N=C(c2ccc(Nc3cc(=O)oc4ccccc34)cc2)CC1c1ccc(C)cc1 (configuration not stated)"
  tgt: "Escherichia coli"
  value type: "diameter of the inhibition zone (DIZ)"
  limit operator: "="
  numeric readout: 12
- compound: "Nc1nc(-c2ccc(Nc3cc(=O)oc4ccccc34)cc2)cc(-c2ccccc2O)n1"
  tgt: "Escherichia coli"
  value type: "diameter of the inhibition zone (DIZ)"
  limit operator: "="
  numeric readout: 19
- compound: "CC(=O)N1N=C(c2ccc(Nc3cc(=O)oc4ccccc34)cc2)CC1c1ccc(Cl)cc1 (configuration not stated)"
  tgt: "Escherichia coli"
  value type: "diameter of the inhibition zone (DIZ)"
  limit operator: "="
  numeric readout: 15
- compound: "O=C(O)c1cn(C2CC2)c2cc(N3CCNCC3)c(F)cc2c1=O"
  tgt: "Escherichia coli"
  value type: "diameter of the inhibition zone (DIZ)"
  limit operator: "="
  numeric readout: 32
- compound: "O=C(/C=C/c1ccc([N+](=O)[O-])cc1)c1ccc(Nc2cc(=O)oc3ccccc23)cc1"
  tgt: "Escherichia coli"
  value type: "diameter of the inhibition zone (DIZ)"
  limit operator: "<"
  numeric readout: 10
- compound: "N#Cc1c(-c2ccc([N+](=O)[O-])cc2)cc(-c2ccc(Nc3cc(=O)oc4ccccc34)cc2)nc1N"
  tgt: "Escherichia coli"
  value type: "diameter of the inhibition zone (DIZ)"
  limit operator: "="
  numeric readout: 22
- compound: "O=C(/C=C/c1ccc(F)cc1)c1ccc(Nc2cc(=O)oc3ccccc23)cc1"
  tgt: "Escherichia coli"
  value type: "diameter of the inhibition zone (DIZ)"
  limit operator: "="
  numeric readout: 18
- compound: "CC(=O)N1N=C(c2ccc(Nc3cc(=O)oc4ccccc34)cc2)CC1c1ccccc1Br (configuration not stated)"
  tgt: "Escherichia coli"
  value type: "diameter of the inhibition zone (DIZ)"
  limit operator: "="
  numeric readout: 14
- compound: "O=C(/C=C/c1ccc(Cl)cc1Cl)c1ccc(Nc2cc(=O)oc3ccccc23)cc1"
  tgt: "Escherichia coli"
  value type: "diameter of the inhibition zone (DIZ)"
  limit operator: "="
  numeric readout: 14
- compound: "Cc1ccc(/C=C/C(=O)c2ccc(Nc3cc(=O)oc4ccccc34)cc2)cc1"
  tgt: "Escherichia coli"
  value type: "diameter of the inhibition zone (DIZ)"
  limit operator: "<"
  numeric readout: 10
- compound: "O=C(/C=C/c1ccc(Cl)cc1)c1ccc(Nc2cc(=O)oc3ccccc23)cc1"
  tgt: "Escherichia coli"
  value type: "diameter of the inhibition zone (DIZ)"
  limit operator: "="
  numeric readout: 12
- compound: "N#Cc1c(-c2ccccc2)cc(-c2ccc(Nc3cc(=O)oc4ccccc34)cc2)nc1N"
  tgt: "Escherichia coli"
  value type: "diameter of the inhibition zone (DIZ)"
  limit operator: "="
  numeric readout: 19
- compound: "CC(=O)N1N=C(c2ccc(Nc3cc(=O)oc4ccccc34)cc2)CC1c1ccc(F)cc1 (configuration not stated)"
  tgt: "Escherichia coli"
  value type: "diameter of the inhibition zone (DIZ)"
  limit operator: "="
  numeric readout: 20
- compound: "COc1ccc(-c2cc(-c3ccc(Nc4cc(=O)oc5ccccc45)cc3)nc(N)c2C#N)cc1"
  tgt: "Escherichia coli"
  value type: "diameter of the inhibition zone (DIZ)"
  limit operator: "="
  numeric readout: 28
- compound: "N#Cc1c(-c2ccc(F)cc2)cc(-c2ccc(Nc3cc(=O)oc4ccccc34)cc2)nc1N"
  tgt: "Escherichia coli"
  value type: "diameter of the inhibition zone (DIZ)"
  limit operator: "="
  numeric readout: 27
- compound: "O=C(/C=C/c1ccc(O)cc1O)c1ccc(Nc2cc(=O)oc3ccccc23)cc1"
  tgt: "Escherichia coli"
  value type: "diameter of the inhibition zone (DIZ)"
  limit operator: "="
  numeric readout: 19
- compound: "Nc1nc(-c2ccc(F)cc2)cc(-c2ccc(Nc3cc(=O)oc4ccccc34)cc2)n1"
  tgt: "Escherichia coli"
  value type: "diameter of the inhibition zone (DIZ)"
  limit operator: "="
  numeric readout: 25
- compound: "COc1ccc(-c2cc(-c3ccc(Nc4cc(=O)oc5ccccc45)cc3)nc(N)n2)cc1OC"
  tgt: "Escherichia coli"
  value type: "diameter of the inhibition zone (DIZ)"
  limit operator: "="
  numeric readout: 25
- compound: "Nc1nc(-c2ccc(Nc3cc(=O)oc4ccccc34)cc2)cc(-c2ccc(O)cc2O)n1"
  tgt: "Escherichia coli"
  value type: "diameter of the inhibition zone (DIZ)"
  limit operator: "="
  numeric readout: 22
- compound: "N#Cc1c(-c2ccc(Cl)cc2Cl)cc(-c2ccc(Nc3cc(=O)oc4ccccc34)cc2)nc1N"
  tgt: "Escherichia coli"
  value type: "diameter of the inhibition zone (DIZ)"
  limit operator: "="
  numeric readout: 20
- compound: "CC(=O)N1N=C(c2ccc(Nc3cc(=O)oc4ccccc34)cc2)CC1c1ccc([N+](=O)[O-])cc1 (configuration not stated)"
  tgt: "Escherichia coli"
  value type: "diameter of the inhibition zone (DIZ)"
  limit operator: "="
  numeric readout: 14
- compound: "Cc1ccc(-c2cc(-c3ccc(Nc4cc(=O)oc5ccccc45)cc3)nc(N)n2)cc1"
  tgt: "Escherichia coli"
  value type: "diameter of the inhibition zone (DIZ)"
  limit operator: "="
  numeric readout: 15
- compound: "O=C(/C=C/c1ccccc1Br)c1ccc(Nc2cc(=O)oc3ccccc23)cc1"
  tgt: "Escherichia coli"
  value type: "diameter of the inhibition zone (DIZ)"
  limit operator: "="
  numeric readout: 11
- compound: "COc1ccc(-c2cc(-c3ccc(Nc4cc(=O)oc5ccccc45)cc3)nc(N)c2C#N)cc1OC"
  tgt: "Escherichia coli"
  value type: "diameter of the inhibition zone (DIZ)"
  limit operator: "="
  numeric readout: 26
- compound: "COc1ccc(-c2cc(-c3ccc(Nc4cc(=O)oc5ccccc45)cc3)nc(N)n2)cc1"
  tgt: "Escherichia coli"
  value type: "diameter of the inhibition zone (DIZ)"
  limit operator: "="
  numeric readout: 22
- compound: "CC(=O)N1N=C(c2ccc(Nc3cc(=O)oc4ccccc34)cc2)CC1c1ccccc1O (configuration not stated)"
  tgt: "Escherichia coli"
  value type: "diameter of the inhibition zone (DIZ)"
  limit operator: "="
  numeric readout: 16
- compound: "Nc1nc(-c2ccc(Nc3cc(=O)oc4ccccc34)cc2)cc(-c2ccc(Cl)cc2Cl)n1"
  tgt: "Escherichia coli"
  value type: "diameter of the inhibition zone (DIZ)"
  limit operator: "="
  numeric readout: 19
